B1: library; numbered along this chain (parent)
chain: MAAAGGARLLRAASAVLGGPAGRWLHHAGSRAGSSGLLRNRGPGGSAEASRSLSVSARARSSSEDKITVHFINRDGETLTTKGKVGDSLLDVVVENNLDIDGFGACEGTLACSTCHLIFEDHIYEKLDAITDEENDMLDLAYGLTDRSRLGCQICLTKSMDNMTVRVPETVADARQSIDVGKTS

variants of: B1; experiment: scaled log2 fold change in cell abundance, elesclomol vs control (0 = silent mean, 1 = nonsense mean) (scaled log2 ratio); higher = higher viability under elesclomol (loss of FDX1 cuproptosis function); details: with HEK293T FDX1 KO; elesclomol 40 nM; glucose 10 mM; 11 days;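 also: variant abundance is its share of total variant reads in each endpoint sample, from next-generation sequencing of the integrated ORF PCR-amplified out of genomic DNA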
quantity_measured: scaled log2 fold change
In your answer, state the number alone without any accompanying words.

Quick one: scaled log2 fold change of V94H ?
0.317

Here's the next entry for you.
Quick one: scaled log2 fold change of D132R ?
-0.177

Values from the supplement of paper PMC12855868
